Test: NIH3T3 cell viability loss – ATP luminescence, mouse fibroblasts, counter-screen, dose response (AID 2010);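 also: cells exposed to compound for about 90 hours before reading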
Assay type: functional, cell-based
Calls of active or inactive are those of the source.
test_readout: EC50

Here are 2 compounds together with their reported answers.
O=C(Nc1cccc(Cl)c1)Nc1cc(S(=O)(=O)N2CCCCC2)ccc1Cl	> 60 µM (not active)
CCC(=O)N1CCN(c2ccc(NC(=O)c3ccc([N+](=O)[O-])o3)cc2)CC1	7.54 µM (active)

Would you kindly look at the next entry?
Task: Entry "Cc1c(Cl)c([N+](=O)[O-])nn1CCCC(=O)N(Cc1ccccc1)Cc1ccccc1" has what EC50?
Output: 29.7 µM (active)

###

Readings of IC50 for the listed compounds
Target: Polyadenylate-binding protein 1 (Homo sapiens)
Sequence (P11940 whole entry): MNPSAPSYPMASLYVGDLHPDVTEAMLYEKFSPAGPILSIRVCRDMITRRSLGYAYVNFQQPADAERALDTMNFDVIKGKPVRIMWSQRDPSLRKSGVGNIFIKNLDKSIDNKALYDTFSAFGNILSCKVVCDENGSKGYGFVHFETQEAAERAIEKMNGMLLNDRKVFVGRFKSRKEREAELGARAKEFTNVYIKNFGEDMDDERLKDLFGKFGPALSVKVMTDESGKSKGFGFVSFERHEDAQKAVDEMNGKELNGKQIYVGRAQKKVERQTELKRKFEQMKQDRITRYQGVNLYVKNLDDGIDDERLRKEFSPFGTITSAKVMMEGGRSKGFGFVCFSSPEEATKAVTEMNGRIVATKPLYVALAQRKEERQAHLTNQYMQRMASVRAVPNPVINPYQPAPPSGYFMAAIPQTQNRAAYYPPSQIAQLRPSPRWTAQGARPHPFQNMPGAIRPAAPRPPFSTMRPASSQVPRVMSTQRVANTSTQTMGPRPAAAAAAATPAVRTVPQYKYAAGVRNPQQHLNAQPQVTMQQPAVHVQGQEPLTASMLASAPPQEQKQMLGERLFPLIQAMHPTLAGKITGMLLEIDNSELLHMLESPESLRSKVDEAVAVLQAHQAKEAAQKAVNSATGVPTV
Experiment: MLLE binding blockers, Cy5 peptide tracer – biochemical, fluorescence polarization, Cy5-PAM2 peptide, secondary, miRNA deadenylation inhibitor project, dose response (AID 602260)
Type: functional
Conditions: read-out: IC50_Mean
The source made the active and inactive calls.

Here are 3 compounds together with their reported answers.
COCCNC(=S)N/N=C(\C)c1ccccc1O	> 66 µM (inactive)
CCOC(=O)c1ccccc1N1C(=O)CSC1=S	> 66 µM (inactive)
CCCCn1c(NC(=S)Nc2ccccc2)nc2ccccc21	> 66 µM (inactive)

Would you kindly look at the next entry?
Task: Entry "Nc1ccc2c(O)cc(S(=O)(=O)O)cc2c1" has what IC50?
Output: > 66 µM (inactive)

###

Assay: Luminescence Cell-Based Dose Response HTS to Identify Activators of Luciferase Translation or Activity in H4 […] Cells. [Related pubchem assays: 1829 (Project Summary), 1814 (Primary HTS)]
Assay type: functional
Calls of active or inactive are those of the source.
Readings of EC50 for the listed compounds

Here are 5 compounds together with their reported answers.
O=C(CSc1nc(-c2ccc(F)cc2)cs1)N1CCOCC1	7.79 µM (active)
Cc1noc(C)c1COC(=O)c1ccc(-c2nc3ccccc3s2)s1	0.245 µM (active)
c1ccc(C2=Nc3ccccc3SC2c2nc3ccccc3[nH]2)cc1 (stereo not drawn)	24.1 µM (active)
COC(=O)CSc1nc2ccccn2c(=O)c1C=O	18.5 µM (active)
CC(=O)C(Sc1nn(C)c(=S)s1)C(=O)Nc1ccccc1 (stereo not drawn)	12.4 µM (active)

Task: Entry "c1cnc2c(OCc3nc4ccccc4[nH]3)cccc2c1" has what EC50?
Output: 7.06 µM (active)

Task: Entry "Cc1cc(NC(=O)c2noc3c2CCCCC3)no1" has what EC50?
Output: < 0.1 µM (inconclusive)

Task: Entry "O=C(Nc1cccc(F)c1)Nc1ccc2c(c1)CCC2" has what EC50?
Output: < 0.1 µM (active)

###

Readings of EC50 for the listed compounds
Target: Short transient receptor potential channel 4 (Mus musculus)
Sequence (Q9QUQ5 whole entry): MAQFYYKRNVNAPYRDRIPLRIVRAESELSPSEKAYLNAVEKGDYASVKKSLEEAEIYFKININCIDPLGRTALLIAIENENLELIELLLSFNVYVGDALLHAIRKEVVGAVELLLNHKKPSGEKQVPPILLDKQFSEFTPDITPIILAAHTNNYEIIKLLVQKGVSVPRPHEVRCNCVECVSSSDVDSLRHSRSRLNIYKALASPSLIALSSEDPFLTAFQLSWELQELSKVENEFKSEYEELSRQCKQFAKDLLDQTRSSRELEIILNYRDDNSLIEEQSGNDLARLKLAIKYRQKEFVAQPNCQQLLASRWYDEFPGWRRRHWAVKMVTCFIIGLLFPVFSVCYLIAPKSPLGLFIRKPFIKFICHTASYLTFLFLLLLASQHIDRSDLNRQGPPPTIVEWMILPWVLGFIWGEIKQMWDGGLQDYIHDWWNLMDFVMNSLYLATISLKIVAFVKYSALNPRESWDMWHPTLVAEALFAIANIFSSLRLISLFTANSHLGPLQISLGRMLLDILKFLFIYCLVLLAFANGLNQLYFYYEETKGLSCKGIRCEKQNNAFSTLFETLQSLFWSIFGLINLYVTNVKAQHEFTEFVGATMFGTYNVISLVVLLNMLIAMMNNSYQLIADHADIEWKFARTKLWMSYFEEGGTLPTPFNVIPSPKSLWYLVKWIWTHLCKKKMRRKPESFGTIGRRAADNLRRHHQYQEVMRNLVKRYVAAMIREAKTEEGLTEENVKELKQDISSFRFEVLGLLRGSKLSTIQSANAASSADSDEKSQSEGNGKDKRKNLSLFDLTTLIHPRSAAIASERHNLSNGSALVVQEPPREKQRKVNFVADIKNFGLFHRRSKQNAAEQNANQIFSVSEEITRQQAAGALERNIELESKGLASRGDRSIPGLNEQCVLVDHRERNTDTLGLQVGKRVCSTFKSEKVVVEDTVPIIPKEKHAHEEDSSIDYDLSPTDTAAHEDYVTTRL
Assay: block of DAMGO-driven TRPC4 calcium entry – cell-based, HEK293 TRPC4/mu-opioid, Fluo-4 calcium, dose response (AID 434942);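 also: potency of inhibitors blocking the TRPC4 calcium response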
Assay type: functional
Activity calls are given as the source filed them.

Here are 3 compounds together with their reported answers.
O=C(Cn1c(NCCCO)nc2ccccc21)c1ccc(Br)cc1	2.99 µM (active)
OCC1(Cc2ccc(Cl)cc2)CCN(Cc2ccccc2F)CC1	5.96 µM (active)
CCCCn1c(SCC(=O)OCC)nc2c(sc(=S)n2-c2ccccc2OC)c1=O	1.68 µM (active)

Would you kindly look at the next entry?
Task: Entry "Cc1ccc(NC(=O)CN2CCc3ccccc3C2)cc1S(=O)(=O)N1CCOCC1" has what EC50?
Output: 3.76 µM (active)

###

Test: microbe, parasite or virus in culture
Type: functional
Conditions: Mycobacterium tuberculosis
Activity calls are given as the source filed them.
Readings of CC50 for the listed compounds

CCOC(=O)c1[nH]c2ccc(F)cc2c1NC(=O)CN1CCN(C/C=C/c2ccccc2)CC1	22.4 µM (active)
Cc1cccc(-c2oc3ccc(-c4ccc5c(c4)OCO5)cc3c2C#Cc2cncn2C)c1	> 40 µM (active)

Task: Entry "COC(=O)c1cc(=O)n(-c2ccc(F)cc2)/c(=N/c2ccc(F)cc2)s1" has what CC50?
Output: 13.9 µM (active)

Task: Entry "COc1ccc(C2=Nn3c(nnc3-c3ccccc3F)SC2)cc1OC1CCCC1" has what CC50?
Output: 9.04 µM (active)

###

List of AC50 tested on Cytochrome P450 2D6 (Homo sapiens, UniProt P10635).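 Also: CYP2D6 member of a cytochrome P450 panel assay.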
Sequence (P10635 whole entry): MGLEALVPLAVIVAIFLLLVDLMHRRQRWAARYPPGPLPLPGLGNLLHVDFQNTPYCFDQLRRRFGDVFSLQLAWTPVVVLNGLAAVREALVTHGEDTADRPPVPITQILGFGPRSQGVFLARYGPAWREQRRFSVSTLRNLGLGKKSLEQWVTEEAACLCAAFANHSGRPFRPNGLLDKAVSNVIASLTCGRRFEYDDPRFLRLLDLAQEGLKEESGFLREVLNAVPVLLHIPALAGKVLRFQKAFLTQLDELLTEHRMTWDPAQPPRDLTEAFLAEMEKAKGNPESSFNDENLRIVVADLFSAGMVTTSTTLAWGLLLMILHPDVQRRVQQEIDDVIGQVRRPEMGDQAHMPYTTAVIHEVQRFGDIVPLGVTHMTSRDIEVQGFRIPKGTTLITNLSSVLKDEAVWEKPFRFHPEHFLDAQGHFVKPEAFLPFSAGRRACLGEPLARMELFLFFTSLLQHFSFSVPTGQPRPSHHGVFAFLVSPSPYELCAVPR

Here are 5 compounds together with their reported answers.
COc1ccc(Nc2ncc(C(=O)N3CCN(c4ccc(F)cc4)CC3)c3ccccc23)cc1	31.6 µM (inconclusive)
C[C@@H]1C[C@H](OC(=O)[C@@H](O)c2ccccc2)CC(C)(C)N1C	15.8 µM (inconclusive)
COc1ccccc1-c1cncnc1NCc1cnc(C)cn1	39.8 µM (inconclusive)
O=c1c(-c2cccs2)nc2cnc(N3CCNCC3)nc2n1-c1ccccc1	20 µM (inconclusive)
CCN(CC)CCOc1ccc2nc(N(C)C)sc2c1	15.8 µM (inconclusive)

Would you kindly look at the next entry?
Task: Kindly state the measured AC50 obtained for "CS(=O)(=O)c1ccccc1COC(=O)Nc1ccc(Cl)cc1" with Cytochrome P450 2D6 (Homo sapiens, UniProt P10635).
Output: 10 µM (inconclusive)

###

Target: Cell division cycle 7-related protein kinase (Homo sapiens);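 also: value obtained from a kinome-wide kinase panel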
Sequence (O00311 whole entry): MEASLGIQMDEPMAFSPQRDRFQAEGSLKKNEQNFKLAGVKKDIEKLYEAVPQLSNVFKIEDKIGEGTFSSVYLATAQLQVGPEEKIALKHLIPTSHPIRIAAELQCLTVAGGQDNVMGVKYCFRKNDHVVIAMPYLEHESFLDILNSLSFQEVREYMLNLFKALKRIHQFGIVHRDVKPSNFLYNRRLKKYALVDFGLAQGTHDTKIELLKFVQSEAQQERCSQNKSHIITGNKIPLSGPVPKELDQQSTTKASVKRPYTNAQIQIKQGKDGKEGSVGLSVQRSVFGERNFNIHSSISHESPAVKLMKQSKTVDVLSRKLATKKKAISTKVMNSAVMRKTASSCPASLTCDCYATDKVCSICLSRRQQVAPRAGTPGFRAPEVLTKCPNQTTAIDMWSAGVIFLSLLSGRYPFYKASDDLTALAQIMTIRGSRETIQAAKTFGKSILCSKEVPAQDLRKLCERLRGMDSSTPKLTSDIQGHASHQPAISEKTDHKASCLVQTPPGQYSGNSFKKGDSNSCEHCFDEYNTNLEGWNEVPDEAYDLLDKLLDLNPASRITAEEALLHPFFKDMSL
Assay type: functional
The source made the active and inactive calls.
Readings of Ki for the listed molecules

Here are 3 molecules together with their reported answers.
NC(=O)c1ccc(-c2ccncc2)cc1N1CCCC1	126 nM (active)
COCC(C)Nc1cc(-c2c[nH]c3ncccc23)cc(Cl)n1 (centres undefined)	2 nM (active)
O=C(Nc1cc(-c2c[nH]c3ncccc23)cc(Cl)n1)c1ccccc1	1.58 nM (active)

Would you kindly look at the next entry?
Task: Kindly state the measured Ki obtained for "c1ccc(Cn2cc(-c3ccc4[nH]nc(-c5ccccc5)c4c3)nn2)cc1" with Cell division cycle 7-related protein kinase (Homo sapiens).
Output: 7.94 nM (active)

###

Target: Cytochrome P450 2C9 (Homo sapiens, UniProt P11712)
Sequence (P11712 whole entry): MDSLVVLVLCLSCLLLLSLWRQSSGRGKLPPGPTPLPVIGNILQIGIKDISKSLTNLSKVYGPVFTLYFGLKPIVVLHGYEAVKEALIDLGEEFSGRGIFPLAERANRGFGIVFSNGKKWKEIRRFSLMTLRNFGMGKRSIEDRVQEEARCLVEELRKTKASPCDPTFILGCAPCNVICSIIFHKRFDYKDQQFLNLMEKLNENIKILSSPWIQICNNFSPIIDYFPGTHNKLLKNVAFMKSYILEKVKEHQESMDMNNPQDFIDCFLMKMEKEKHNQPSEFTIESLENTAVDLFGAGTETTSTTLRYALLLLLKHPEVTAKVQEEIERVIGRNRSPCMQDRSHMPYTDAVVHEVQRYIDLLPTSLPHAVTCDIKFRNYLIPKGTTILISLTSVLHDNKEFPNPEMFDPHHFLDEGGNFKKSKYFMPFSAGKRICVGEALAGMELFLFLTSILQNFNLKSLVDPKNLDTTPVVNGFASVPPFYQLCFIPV
Readings of AC50 for the listed molecules

Here are 9 molecules together with their reported answers.
CCCCCc1nnc(NC(=O)C(=O)OCC)s1	28200 nM (inconclusive)
COC(=O)C(C)Sc1nc(O)c2cnn(-c3ccc(C)cc3)c2n1 (stereo not given)	3550 nM (inconclusive)
COc1ccc(/C(C)=N/NC(=O)c2ccc(CSc3cccc4cccnc34)cc2)cc1OC	1260 nM (inconclusive)
O=C(CSc1nnc(-c2ccccn2)n1Cc1ccco1)Nc1ccc2c(c1)OCO2	15800 nM (inconclusive)
COc1ccccc1CNc1nc(-c2cccc(C#N)c2)nc2ccccc12	1000 nM (inconclusive)
Oc1cc(O)c2c(c1)O[C@@H](c1ccc(O)c(O)c1)[C@H](O[C@@]1(c3cc(O)c(O)c(O)c3)Oc3cc(O)cc(O)c3[C@H](O)[C@@H]1O)C2	6310 nM (inconclusive)
Clc1ccccc1CNCC1CCC(CNCc2ccccc2Cl)CC1 (stereo not given)	1260 nM (inconclusive)
CCOc1ccc(C(Nc2ccc(C)cc2)P2(=O)OCC(C)(C)CO2)cc1 (stereo not given)	20 nM (inconclusive)
Cn1c(Sc2ccc(-c3cccnc3)n2C)ccc1-c1cccnc1	3980 nM (inconclusive)

Would you kindly look at the next entry?
Task: Entry "O=C(CCN1C(=O)/C(=C/c2cccc(Br)c2)SC1=S)NNC(=O)c1cccnc1" has what AC50?
Output: 447 nM (inconclusive)

###

Target: Endoribonuclease toxin MazF (Escherichia coli K-12, UniProt P0AE70)
Sequence (P0AE70 whole entry): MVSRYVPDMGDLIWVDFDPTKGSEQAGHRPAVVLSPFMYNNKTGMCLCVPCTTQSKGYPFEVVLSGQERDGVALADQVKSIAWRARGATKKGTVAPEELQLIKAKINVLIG
Test: substrate-only fluorescence increase artefacts – biochemical, single-stranded RNase substrate, counter-screen for MazEF activator project, dose response (AID 588502)
Type: functional
Calls of active or inactive are those of the source.
test_readout: EC50

CSC1=N/C(=C\c2ccc(C)s2)C(=O)S1	72 µM (inactive)

Task: Entry CCC(C)NC(=O)c1ccc(CNS(=O)(=O)c2ccc3c(c2)C(C)(C)C(=O)N3C)cc1 (centres undefined) has what EC50?
Output: > 99 µM (inactive)

Task: Entry COc1cccc(C2=CC(c3ccc(N(C)C)cc3)n3nnnc3N2)c1 (centres undefined) has what EC50?
Output: > 99 µM (inactive)

Task: Entry "COc1ccc(OC)c(/C=C2\N=C(c3ccccc3)OC2=O)c1" has what EC50?
Output: 39.1 µM (inactive)

###

Target: Corticotropin-releasing factor receptor 2/Corticotropin-releasing factor-binding protein (Homo sapiens, UniProt P24387+Q13324)
Sequence (Q13324 whole entry): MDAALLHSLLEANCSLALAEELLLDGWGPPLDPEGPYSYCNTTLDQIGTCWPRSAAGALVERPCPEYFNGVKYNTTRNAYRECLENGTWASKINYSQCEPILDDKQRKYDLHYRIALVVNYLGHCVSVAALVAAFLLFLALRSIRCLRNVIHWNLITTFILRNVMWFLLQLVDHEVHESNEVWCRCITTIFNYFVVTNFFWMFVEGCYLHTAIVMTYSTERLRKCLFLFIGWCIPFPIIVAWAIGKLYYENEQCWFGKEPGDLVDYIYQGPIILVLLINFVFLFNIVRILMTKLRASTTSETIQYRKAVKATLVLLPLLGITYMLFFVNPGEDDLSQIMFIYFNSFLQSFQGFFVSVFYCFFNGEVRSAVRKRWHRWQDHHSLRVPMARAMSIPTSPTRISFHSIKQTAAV
Sequence (P24387 whole entry): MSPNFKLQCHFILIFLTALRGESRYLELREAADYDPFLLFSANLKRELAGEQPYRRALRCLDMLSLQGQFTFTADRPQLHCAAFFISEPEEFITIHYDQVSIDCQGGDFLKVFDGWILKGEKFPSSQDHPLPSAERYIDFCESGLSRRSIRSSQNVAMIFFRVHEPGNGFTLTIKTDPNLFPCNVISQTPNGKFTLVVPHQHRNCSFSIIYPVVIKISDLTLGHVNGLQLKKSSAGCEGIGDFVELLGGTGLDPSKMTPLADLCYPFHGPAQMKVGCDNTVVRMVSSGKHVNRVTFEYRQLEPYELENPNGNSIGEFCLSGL
Assay: activators of CRF receptor 2 with binding protein – uHTS hits, confirmation (AID 602473)
Format: functional
Settings: read-out: EC50_Mean
Calls of active or inactive are those of the source.
Can you answer with just one of these options? active, inactive

Here are 8 compounds together with their reported answers.
CCc1ccccc1NC(=O)NC(C)c1ccc2c(c1)OCO2 (centres undefined)	inactive
CCCP(=O)(CC(=O)N(CC)CC)c1ccccc1 (centres undefined)	inactive
CCOC(=O)c1sc(-c2ccc(C(F)(F)F)cc2)nc1O	active
CCOC(=O)c1cc(=O)cc(C(=O)OCC)o1	inactive
COc1cc(/C=c2\s/c(=C(/C#N)C(=O)N3CCCC3)n(-c3ccccc3)c2=O)ccc1O	active
O=[N+]([O-])/C(C(Cl)=C(Cl)Cl)=C(/NC1CC1)Sc1ccccc1	inactive
Cn1c(=O)n(Cc2ccccc2Cl)c2ccccc21	inactive
Nc1ccc(N=Nc2ccccc2)cc1[N+](=O)[O-]	inactive

Task: Status in this test for "COc1cccc(/C(C)=N/NS(=O)(=O)c2ccc(Cl)cc2)c1" ?
Output: inactive
